- Read-out: UDP glucuronosyltransferase (UGT1A6), UGT1A6 (gene 54578)
- assay-method-text: LTEA_HepaRG_UGT1A6: Life Technologies and Expression Analysis (LTEA) Assay for UDP glucuronosyltransferase (UGT1A6) using HepaRG (AID 2283539)
- recorded-conditions: mRNA level, 48 h; actives raise or lower the signal
The source made the active and inactive calls. The calls were made as follows: active = hit-call score of the fitted dose curve at least 0.9, where 1 is the maximum; inactive = score below 0.9.
Return exactly one item of YES (active), NO (inactive)

// query // param item: CSc1ccc(Oc2ccc(S(N)(=O)=O)cc2CN(C)C)cc1C ; yields the recorded call
// result NO

// query // param item: CCCCCCCC(=O)OC ; yields the recorded call
// result NO

// query // param item: CC(=O)OCC(COC(C)=O)OC(C)=O ; yields the recorded call
// result NO

// query // param item: CN(C)C(=O)NC1(c2ccccc2)CCN(CC[C@@]2(c3ccc(F)c(F)c3)CN(C(=O)c3ccccc3)CCO2)CC1 ; yields the recorded call
// result NO

// query // param item: COC(=O)CCCC(=O)OC ; yields the recorded call
// result NO

// query // param item: O=C1NC(=O)C(c2ccccc2)(c2ccccc2)N1 ; yields the recorded call
// result NO

// query // param item: NCCOCCOCCN ; yields the recorded call
// result NO

// query // param item: Oc1ccc(O)cc1 ; yields the recorded call
// result NO

// query // param item: CO[C@@H]1COCC[C@@H]1N[C@@H]1CC[C@@](C(=O)N2CCc3ncc(C(F)(F)F)cc3C2)(C(C)C)C1 ; yields the recorded call
// result NO

// query // param item: O=[Si]=O ; yields the recorded call
// result NO

// query // param item: CC(C)NCC(O)c1ccc(O)c(O)c1 (stereo not given) ; yields the recorded call
// result NO

// query // param item: O=C(N[C@@H](c1ccccc1)[C@@H]1CCCCN1)c1cccc(C(F)(F)F)c1Cl ; yields the recorded call
// result YES

// query // param item: O=C(O)c1cccnc1 ; yields the recorded call
// result NO

// query // param item: CCCCCCCCCC[N+](C)(C)[O-] ; yields the recorded call
// result NO

// query // param item: Oc1ccccc1O ; yields the recorded call
// result NO

// query // param item: CCCC[C@H]1CN(CC2CCOCC2)C(=O)OC12CCN(C1(C)CCN(C(=O)c3c(C)ncnc3C)CC1)CC2 ; yields the recorded call
// result NO

// query // param item: O=C(O)CN(CC(=O)O)CC(=O)O ; yields the recorded call
// result NO

// query // param item: CC1=C(C)S(=O)(=O)CCS1(=O)=O ; yields the recorded call
// result YES

// query // param item: Cc1ccc(C(C)(C)C)c(O)c1 ; yields the recorded call
// result NO

// query // param item: NC=O ; yields the recorded call
// result NO
